Where do these numbers come from? They come from patent US9073940B2.

tested on: 4 PI3K isoforms (Human recombinant GST-PI3K); test: PI3K scintillation proximity assay, best IC50 obtained with the four isoforms (alpha, beta, delta, gamma); format: biochemical; conditions: best IC50 obtained with the four isoforms of PI3K; read-out: Best potency measured on the 4 PI3K isoforms
pIC50: −log10 of the molar value.
Could you label it Criterion met if measured pIC50 is 7 or higher, and Criterion not met otherwise?

[[record]]
molecule = "O=C(c1nn(-c2ccccc2)c2c1C(CC1CC1)S(=O)(=O)c1ccccc1-2)N1CCOCC1 (stereo not shown)"
category_label = "Criterion not met"

[[record]]
molecule = "NCCCC1c2c(C(=O)N3CCOCC3)nn(-c3ccccc3)c2-c2ccccc2S1(=O)=O (stereo not shown)"
category_label = "Criterion not met"

[[record]]
molecule = "CC(C)CCOC1CCN(Cc2cccc(-n3nc(C(=O)N4CCOCC4)c4c3-c3ccccc3S(=O)(=O)C4)c2)C1 (stereo not shown)"
category_label = "Criterion not met"

[[record]]
molecule = "CN(C)Cc1cccc(-n2nc(C(=O)N3CCOCC3)c3c2-c2ccccc2S(=O)(=O)C3)c1"
category_label = "Criterion not met"

[[record]]
molecule = "COc1ccc2c(c1)S(=O)(=O)Cc1c(C(=O)N3CCOCC3)nn([C@H]3CCCN(CCN4CC(F)(F)C4)C3)c1-2 (single isomer, unassigned)"
category_label = "Criterion met"

[[record]]
molecule = "O=C(c1nn(C2CCCN(Cc3ccccc3)C2)c2c1CS(=O)(=O)c1ccccc1-2)N1CCOCC1 (stereo not shown)"
category_label = "Criterion not met"

[[record]]
molecule = "CN(C)S(=O)(=O)c1cccc(-n2nc(C(=O)N3CCOCC3)c3c2-c2ccccc2S(=O)(=O)C3)c1"
category_label = "Criterion not met"

[[record]]
molecule = "O=C(c1nn(-c2ccccc2)c2c1CS(=O)(=O)c1ccccc1-2)N1CCOCC1"
category_label = "Criterion not met"

[[record]]
molecule = "O=C(c1nn(C2CCOCC2)c2c1CS(=O)(=O)c1c(Cl)cccc1-2)N1CCOCC1"
category_label = "Criterion not met"

[[record]]
molecule = "O=C(c1nn(C2CCCN(CCN3CC(F)(F)C3)C2)c2c1CS(=O)(=O)c1ccccc1-2)N1CCOCC1 (stereo not shown)"
category_label = "Criterion met"

[[record]]
molecule = "COc1cccc2c1S(=O)(=O)Cc1c(C(=O)N3CCOCC3)nn([C@H]3CCCN(CCN4CC(F)(F)C4)C3)c1-2 (single isomer, unassigned)"
category_label = "Criterion met"

[[record]]
molecule = "COCCN1CCC(n2nc(C(=O)N3CCOCC3)c3c2-c2ccccc2S(=O)(=O)C3)C1 (stereo not shown)"
category_label = "Criterion not met"

[[record]]
molecule = "CC(C)(C)C1CCC(n2nc(C(=O)N3CCOCC3)c3c2-c2ccccc2S(=O)(=O)C3)CC1 (stereo not shown)"
category_label = "Criterion not met"

[[record]]
molecule = "O=C(c1nn(C2CN3CCC2CC3)c2c1CS(=O)(=O)c1ccccc1-2)N1CCOCC1 (stereo not shown)"
category_label = "Criterion not met"

[[record]]
molecule = "O=C(c1nn(-c2ccc(CN3CC(F)(F)C3)cc2)c2c1CS(=O)(=O)c1ccccc1-2)N1CCOCC1"
category_label = "Criterion not met"

[[record]]
molecule = "O=C(c1nn(C2CCCN(CCN3CC[C@@H](F)C3)C2)c2c1CS(=O)(=O)c1ccccc1-2)N1CCOCC1 (single isomer, unassigned)"
category_label = "Criterion met"

[[record]]
molecule = "CCc1noc(Cn2nc(C(=O)N3CCOCC3)c3c2-c2ccccc2S(=O)(=O)C3)n1"
category_label = "Criterion not met"

[[record]]
molecule = "O=C(c1nn([C@H]2CCCN(CCN3CCCC3)C2)c2c1CS(=O)(=O)c1ccccc1-2)N1CCOCC1 (stereo in doubt)"
category_label = "Criterion met"

[[record]]
molecule = "O=C(c1nn(-c2ccccc2)c2c1CS(=O)(=O)c1ccc(F)cc1-2)N1CCOCC1"
category_label = "Criterion not met"

[[record]]
molecule = "O=C(CCN1CCC[C@H](n2nc(C(=O)N3CCOCC3)c3c2-c2ccccc2S(=O)(=O)C3)C1)N1CCC(F)(F)C1 (stereo in doubt)"
category_label = "Criterion met"

[[record]]
molecule = "Cn1nc(C(=O)N2CCOCC2)c2c1-c1cc(Br)ccc1S(=O)(=O)C2"
category_label = "Criterion not met"

[[record]]
molecule = "COc1cccc(-n2nc(C(=O)N3CCOCC3)c3c2-c2ccccc2S(=O)(=O)C3)c1"
category_label = "Criterion not met"

[[record]]
molecule = "O=C(c1cccc(-n2nc(C(=O)N3CCOCC3)c3c2-c2ccccc2S(=O)(=O)C3)c1)N1CCC(O)CC1"
category_label = "Criterion not met"

